biological target: human mGluR5 (Homo sapiens); assay: Cell-based functional Ca2+ mobilization assay (FDSS), potentiation of glutamate EC20 response, HEK293A cells transfected with human mGluR5a (H10H or H12H cell line); conditions: H10H cell line expressing recombinant human mGluR5; in presence of glutamate EC20; ** = compound is an antagonist; read-out: pEC50 (converted)
Sequence (P41594 21-1180 isoform P41594-2 limits assumed): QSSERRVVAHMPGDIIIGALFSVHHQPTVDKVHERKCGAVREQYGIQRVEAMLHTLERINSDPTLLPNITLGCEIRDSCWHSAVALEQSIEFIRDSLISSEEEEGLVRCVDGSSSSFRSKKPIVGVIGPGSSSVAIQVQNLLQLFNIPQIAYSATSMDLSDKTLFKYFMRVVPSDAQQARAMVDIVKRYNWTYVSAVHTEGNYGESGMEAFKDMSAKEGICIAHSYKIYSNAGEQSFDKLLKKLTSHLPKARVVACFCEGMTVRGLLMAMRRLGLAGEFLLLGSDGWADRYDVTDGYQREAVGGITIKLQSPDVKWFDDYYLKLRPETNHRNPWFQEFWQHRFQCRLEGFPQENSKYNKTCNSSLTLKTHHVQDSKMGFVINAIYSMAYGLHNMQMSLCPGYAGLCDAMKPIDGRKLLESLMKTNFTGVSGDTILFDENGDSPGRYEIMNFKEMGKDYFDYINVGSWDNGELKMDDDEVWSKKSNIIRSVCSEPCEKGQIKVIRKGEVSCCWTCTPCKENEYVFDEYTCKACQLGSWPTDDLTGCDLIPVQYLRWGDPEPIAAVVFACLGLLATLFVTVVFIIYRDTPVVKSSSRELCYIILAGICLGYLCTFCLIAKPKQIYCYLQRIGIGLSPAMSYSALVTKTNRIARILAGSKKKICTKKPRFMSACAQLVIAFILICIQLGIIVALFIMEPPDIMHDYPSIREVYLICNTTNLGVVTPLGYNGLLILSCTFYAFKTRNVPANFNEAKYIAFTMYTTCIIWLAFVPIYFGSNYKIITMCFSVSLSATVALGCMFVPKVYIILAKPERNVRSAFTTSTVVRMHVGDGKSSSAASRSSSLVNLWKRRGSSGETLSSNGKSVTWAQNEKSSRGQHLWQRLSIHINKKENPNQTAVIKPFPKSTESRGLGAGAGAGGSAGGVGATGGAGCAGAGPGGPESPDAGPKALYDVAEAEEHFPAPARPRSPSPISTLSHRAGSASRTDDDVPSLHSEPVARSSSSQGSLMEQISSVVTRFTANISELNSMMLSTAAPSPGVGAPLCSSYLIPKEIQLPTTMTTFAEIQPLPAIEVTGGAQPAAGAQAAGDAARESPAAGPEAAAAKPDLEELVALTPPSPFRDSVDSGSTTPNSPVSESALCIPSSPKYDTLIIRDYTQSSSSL
readout: EC50 (nM)
Report the value in nM with no unit label.

Worked examples, 5 compounds total:
Challenge: Consider the compound O=C(c1ccc(F)cc1)N1CCn2nc(OCc3ccnc(Cl)c3)cc2C1 and give its measured EC50.
Response given: 178

Challenge: Can you check Cn1cc(C(=O)N2CCn3nc(OCc4cccc(F)c4)cc3C2)c2ccccc21 next?
Response given: 1320

Challenge: Can you check N#Cc1cc(COc2cc3n(n2)CCN(C(=O)c2ccc(F)cc2)C3)ccn1 next?
Response given: 562

Challenge: Can you check O=C(c1ccc(F)cn1)N1CCn2nc(OCc3ccccc3)cc2C1 next?
Response given: 1510

Challenge: Can you check O=C(c1cccc(Cl)c1)N1CCn2nc(OCc3ccccc3)cc2C1 next?
Response given: 70.8

Continuing:
Challenge: Consider the compound N#Cc1cccc(COc2cc3n(n2)CCN(C(=O)c2ccc(F)cc2)C3)c1 and give its measured EC50.
Response given: 126

Challenge: Can you check Cc1ccccc1COc1cc2n(n1)CCN(C(=O)c1ccc(F)cc1)C2 next?
Response given: 2000

Challenge: Can you check O=C(c1c[nH]c2ccccc12)N1CCn2nc(OCc3ccccc3)cc2C1 next?
Response given: 166

Challenge: Can you check O=C(c1cccc(F)c1F)N1CCn2nc(OCc3ccccc3)cc2C1 next?
Response given: 537

Challenge: Can you check O=C(c1n[nH]c2ccccc12)N1CCn2nc(OCc3ccccc3)cc2C1 next?
Response given: 117

Challenge: Can you check O=C(c1ccccc1)N1CCn2nc(OCc3ccc(F)cc3)cc2C1 next?
Response given: 331

Challenge: Can you check N#Cc1cccc(C(=O)N2CCn3nc(OCc4ccccc4)cc3C2)c1 next?
Response given: 724
